Target: Free fatty acid receptor 4 (Homo sapiens, UniProt Q5NUL3)
Sequence (Q5NUL3 whole entry, canonical isoform): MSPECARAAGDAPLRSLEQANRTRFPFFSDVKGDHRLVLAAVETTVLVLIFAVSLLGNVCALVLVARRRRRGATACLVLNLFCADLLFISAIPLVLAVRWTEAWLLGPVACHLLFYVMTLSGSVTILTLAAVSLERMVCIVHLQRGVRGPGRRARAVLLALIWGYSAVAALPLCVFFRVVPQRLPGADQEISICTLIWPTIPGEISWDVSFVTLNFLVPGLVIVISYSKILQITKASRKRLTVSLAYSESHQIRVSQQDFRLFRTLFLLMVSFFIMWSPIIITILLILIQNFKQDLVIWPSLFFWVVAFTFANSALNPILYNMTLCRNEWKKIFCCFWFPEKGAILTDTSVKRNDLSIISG
Assay: Agonist activity at human GPR120 short isoform expressed in CHOK1 cells assessed as increase in IP1 accumulation after 60 mins by HTRF assay
Assay type: functional, cell-based, CHO-K1
measure: pEC50
// field semantics: pEC50 = negative decimal log of concentration (mol/L)

{"query-smiles": "O=C(O)[C@@H]1C[C@H]1[C@H]1CCc2cc(-c3cc(OC(F)(F)F)ccc3F)ccc2O1", "pEC50": 7.16}
{"query-smiles": "CO[C@H]1C[C@H](Oc2cc(F)c(F)c(-c3ccc4c(c3)CC[C@H]([C@@H]3C[C@H]3C(=O)O)O4)c2)C1", "pEC50": 7.35}
{"query-smiles": "COc1cc(O[C@H]2C[C@H](OC)C2)cc(-c2ccc3c(c2)CC[C@H]([C@@H]2C[C@H]2C(=O)O)O3)c1F", "pEC50": 7.26}

May I ask what pEC50 has been recorded for `O=C(O)CC[C@H]1CCc2cc(-c3cc(OC4CCC4)cnc3F)ccc2O1` ?
7.10

What pEC50 value was documented for this molecule, `COc1cc(OC2CCC2)cc(-c2ccc3c(c2)CC[C@H]([C@@H]2C[C@H]2C(=O)O)O3)c1F` ?
7.60

* * *

Experiment: Volume of distribution at steady state in rat plasma at 0.1 mg/kg administered as iv casette dose by LC/MS/MS analysis
Format: ADME, organism-based
Conditions: read-out: Vdss
Vd values for the compounds below.

{"query-smiles": "O=C(O)CC[C@H]1CCc2cc(-c3cc(OC4CCC4)cc(F)c3F)ccc2O1", "result": "0.45 L/kg"}

Query (compound): `Cc1cnc(Oc2cc(Cl)c(F)c(-c3ccc4c(c3)CC[C@H](CCC(=O)O)O4)c2)s1` ; field requested: Vd
0.14 L/kg

Param item = `COc1cc(Oc2ncc(C)s2)cc(-c2ccc3c(c2)CC[C@H](CCC(=O)O)O3)c1F` ; retrieve measured Vd.
0.15 L/kg

Vd for `COc1cc(O[C@H]2C[C@H](OC)C2)nc(-c2ccc3c(c2)CC[C@H](CCC(=O)O)O3)c1F` ?
0.49 L/kg

Can you share its Vd? I mean this compound: `O=C(O)CC[C@H]1CCc2cc(-c3nc(OC4CCC4)ccc3F)ccc2O1`
0.23 L/kg

Bench note: what Vd did `CO[C@H]1C[C@H](Oc2cc(F)c(F)c(-c3ccc4c(c3)CC[C@H](CCC(=O)O)O4)n2)C1` show?
0.24 L/kg

For the compound `O=C(O)CC[C@H]1CCc2cc(-c3cc(OC(F)(F)F)ccc3F)ccc2O1` , what Vd is on record?
0.64 L/kg

* * *

Consider the following compounds and their measured Activity readings.
Molecular target: Free fatty acid receptor 4 (Homo sapiens)
Experiment: Agonist activity at human GPR120 short isoform expressed in CHOK1 cells assessed as increase in IP1 accumulation at 10 uM after 60 mins by HTRF assay
Assay type: functional, cell-based
Details: CHO-K1

{"query-smiles": "O=C(O)[C@H]1C[C@@H]1[C@H]1CCc2cc(-c3cc(OC(F)(F)F)ccc3F)ccc2O1", "Activity": "> 50%"}
{"query-smiles": "O=C(O)CC[C@H]1CCc2cc(-c3cc(OC4CCC4)ccc3F)ccc2O1", "Activity": "> 50%"}
{"query-smiles": "O=C(O)CC[C@H]1CCc2cc(-c3cc(OC4CCC4)ncc3F)ccc2O1", "Activity": "> 50%"}
{"query-smiles": "O=C(O)CC[C@H]1CCc2cc(-c3nc(OC4CCC4)ccc3F)ccc2O1", "Activity": "> 50%"}
{"query-smiles": "CO[C@H]1C[C@H](Oc2cc(F)c(F)c(-c3ccc4c(c3)CC[C@H](CCc3nnn[nH]3)O4)c2)C1", "Activity": "24%"}
{"query-smiles": "COc1cc(OC2CCC2)nc(-c2ccc3c(c2)CC[C@H](CCC(=O)O)O3)c1F", "Activity": "> 50%"}
{"query-smiles": "CO[C@H]1C[C@H](Oc2cc(F)c(F)c(-c3ccc4c(c3)CC[C@H](CCC(=O)O)O4)n2)C1", "Activity": "> 50%"}
{"query-smiles": "Fc1ccc(OC(F)(F)F)cc1-c1ccc2c(c1)CC[C@H](CCc1nnn[nH]1)O2", "Activity": "17%"}

Which Activity value is on record for `O=C(O)CC[C@H]1CCc2cc(-c3cc(OC(F)(F)F)cc(Cl)c3F)ccc2O1` ?
> 50%

// returns reported Activity for input `Cc1cnc(Oc2cc(Cl)c(F)c(-c3ccc4c(c3)CC[C@H](CCC(=O)O)O4)c2)s1`
> 50%

Recorded Activity of `COc1cc(OC2CC2)cc(-c2ccc3c(c2)CC[C@H](CCc2nnn[nH]2)O3)c1F` , please.
> 50%

Which Activity is reported for this compound? `O=C(O)CC[C@H]1CCc2cc(-c3cc(OC4CCC4)cc(F)c3F)ccc2O1`
> 50%

Tell me the measured Activity of `COc1cc(Oc2ncc(C)s2)cc(-c2ccc3c(c2)CC[C@H](CCC(=O)O)O3)c1F` , please.
> 50%

What value of Activity has been recorded for this entry: `COc1cc(OC(F)(F)F)cc(-c2ccc3c(c2)CC[C@H](CCc2nnn[nH]2)O3)c1F`
45%

Please look up its Activity: `COc1cc(OC2CCC2)cc(-c2ccc3c(c2)CC[C@H]([C@@H]2C[C@H]2C(=O)O)O3)c1F`
> 50%

Query (compound): `COc1cc(O[C@H]2C[C@H](OC)C2)nc(-c2ccc3c(c2)CC[C@H](CCC(=O)O)O3)c1F` ; field requested: Activity
> 50%

Could you share which Activity value was measured for `COc1cc(OC(F)(F)F)cc(-c2ccc3c(c2)CC[C@H](CCC(=O)O)O3)c1F` ?
> 50%

Data request, read-out Activity, for `COc1cc(OC2CCC2)nc(-c2ccc3c(c2)CC[C@H]([C@@H]2C[C@H]2C(=O)O)O3)c1F`
> 50%

Every entry's value here was drawn from ChEMBL document CHEMBL3871307.
